Molecular target: RORγ (Homo sapiens, UniProt P51449)
Construct: expressed in transfected cells; host or cells: 293FT cells (Invitrogen), expression vector pFN26A (Promega)
Sequence (P51449 269-508 limits assumed): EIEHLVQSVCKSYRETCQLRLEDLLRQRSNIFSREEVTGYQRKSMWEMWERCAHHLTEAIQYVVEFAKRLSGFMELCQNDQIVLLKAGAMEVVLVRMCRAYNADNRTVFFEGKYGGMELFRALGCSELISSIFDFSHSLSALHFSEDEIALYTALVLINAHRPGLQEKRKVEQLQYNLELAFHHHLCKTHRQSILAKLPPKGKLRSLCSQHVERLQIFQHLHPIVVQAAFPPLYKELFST
Test: RORγ GAL4 reporter gene assay
Type: cell-based
Conditions: inhibition of RORγ activity, GAL4-RORγ-LBD luciferase reporter in 293FT cells, overnight incubation; read-out: mean pIC50 (converted)
Please provide measured IC50 for the entries that follow.

For CC(C)(C1CCCO1)N(C(=O)c1ccc(NC(=O)Cc2ccc(S(=O)(=O)CC3CC3)cc2)cc1)c1ccccc1 (stereo not shown) the molecule record lists IC50 as ≤ 100 nM

For O=C(Cc1ccc(S(=O)(=O)CC2CC2)cc1)Nc1ccc(C(=O)N(CC(F)(F)F)c2ccccc2)c(Cl)c1 the molecule record lists IC50 as ≤ 10 nM

For Cc1cc(N(C)C(=O)c2ccc(NC(=O)Cc3ccc(S(=O)(=O)NC4CC4)cc3)cc2)no1 the molecule record lists IC50 as ≤ 1000 nM

For CC(C)[C@@H](NC(=O)c1ccc(NC(=O)Cc2ccc(S(=O)(=O)CC3CC3)cc2)cc1)C(F)(F)F the molecule record lists IC50 as ≤ 1000 nM
